Cited source: PubChem BioAssay AID2060600

System: 996289-038-R-J1-PDC complex spheroid viability;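 also: spheroids exposed to the agents for 7 days before readout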
Experimental Details: Anticancer human tumor 996289-038-R-J1-PDC patient-derived colon adenocarcinoma cell line growth inhibition [CLK]; active = viability on the fitted dose curve at most 10% of control; inactive = the rest
Condition Label: second compound 1 µM; first compound 0.0316 µM
Outcome codes: true (1) = active, false (0) = inactive

Compound | Assigned Category
COc1cccc2c1C(=O)c1c(O)c3c(c(O)c1C2=O)CC(O)(C(=O)CO)CC3OC1CC(N)C(O)C(C)O1 (stereo not drawn) + CN1CCN(c2cc(C(=O)Nc3cc4cc(-c5cnn(C)c5)ccc4cn3)ccn2)CC1 | true (1)
C#Cc1c(F)ccc2cc(O)cc(-c3ncc4c(N5CC6CCC(C5)N6)nc(OCC56CCCN5CC(F)C6)nc4c3F)c12 (stereo not drawn) + CNC(=O)c1ccc(Nc2nc(OC3CCCC3)c3c(-c4ccc5nc(C)oc5c4)c[nH]c3n2)c(OC)c1 | false (0)
O=c1[nH]cc(F)c(=O)[nH]1 + CN1CCN(c2cc(C(=O)Nc3cc4cc(-c5cnn(C)c5)ccc4cn3)ccn2)CC1 | true (1)
